Molecular target: ShHTL7 (Striga hermonthica)
Sequence (A0A0M3PNA2 entry or part of it): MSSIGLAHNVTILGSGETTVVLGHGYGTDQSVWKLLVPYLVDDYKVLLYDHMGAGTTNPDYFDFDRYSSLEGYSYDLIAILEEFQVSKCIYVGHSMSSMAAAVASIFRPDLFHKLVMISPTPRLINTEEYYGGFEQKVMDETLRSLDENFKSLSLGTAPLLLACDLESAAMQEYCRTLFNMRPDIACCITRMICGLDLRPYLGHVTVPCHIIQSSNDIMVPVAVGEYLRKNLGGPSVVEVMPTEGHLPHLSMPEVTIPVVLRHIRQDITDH
Assay: biochemical
Assay type: binding
Settings: Supplementary Table 7; binding affinities between ShHTL7 and agonists by SPR; read-out: KD/μM
Hi all, reminder that labels come from Kd, split as low range (below 2 µM), mid range (2 µM to below 6 µM), high range (6 µM or more)

Study these solved cases before continuing.
- molecule: "CC1=CC(OC(=O)N2CCN(CC3CC4C=CC3C4)CC2)OC1=O (centres unmarked)"
  cat: "high range"
- molecule: "CC1=C[C@H](O/C=C2/C(=O)O[C@@H]3c4ccccc4C[C@H]23)OC1=O (racemic) [rac-GR24, reference compound]"
  cat: "low range"
- molecule: "CC1=CC(OC(=O)N2CCN(C(=O)COc3ccc(Br)cc3C)CC2)N(C)C1=O (centres unmarked)"
  cat: "high range"
- molecule: "CC1=C[C@@H](OC(=O)N2CCN(C(=O)COc3ccc(Br)cc3C)CC2)OC1=O [(R)-4a]"
  cat: "low range"
- molecule: "CC1=C[C@H](OC(=O)N2CCN(C(=O)COc3ccc(Br)cc3C)CC2)OC1=O [(S)-4a]"
  cat: "low range"

Quick check: band for CC1=CC(CC(=O)N2CCN(C(=O)COc3ccc(Br)cc3C)CC2)OC1=O (centres unmarked)
mid range

Quick check: band for CCCCOc1ccc(S(=O)(=O)N2CCN(C(=O)OC3C=C(C)C(=O)N3C)CC2)cc1 (centres unmarked)
high range

Quick check: band for CC1=CC(OC(=O)N2CCN(C(=O)COc3ccc(Cl)cc3C)CC2)OC1=O (centres unmarked)
high range

Quick check: band for CCCCOc1ccc(S(=O)(=O)N2CCN(C(=O)OC3C=C(C)C(=O)O3)CC2)cc1 (centres unmarked) [SPL7, reference compound]
mid range

Quick check: band for CC1=CC(OC(=O)N2CCN(C(=O)COc3ccc(F)cc3C)CC2)OC1=O (centres unmarked)
low range
